The measurements presented in this section are drawn from PubChem BioAssay.

Experiment: compound effects on hepatocellular carcinoma cell viability – HepG2, calcein-AM fluorescence, 48 h, basal, profiling panel (AID 1164); note: test concentration not given here
Settings: higher = more signal
Classify as follows. Reported z-score greater than or equal to -0.3: t. Reported z-score below: f.

A selection of reference data follows.
Cc1ccc(S[C@]2(C(=O)NC(C)C)CC(=O)N(Cc3cc(C(F)(F)F)cc(C(F)(F)F)c3)[C@@H]2c2ccc(CO)cc2)cc1    t
COc1cccc(C)c1NC(=O)O[C@H]1[C@H](OC(=O)Nc2ccccc2-c2ccccc2)[C@H](OC(=O)Nc2ccccc2-c2ccccc2)[C@@H](OC)O[C@@H]1CO    t
CCCC[C@@H](O)C1=C(COC)C[C@H]2C(=O)N(Cc3ccccc3)C(=O)[C@H]2[C@H]1CO    t
CCOC(=O)C[C@H]1[C@H](OC(=O)c2ccccc2-c2ccccc2)[C@@H](NC(=O)c2ccc3ccccc3n2)c2cc(OCCCO)ccc2N1C(=O)Cc1ccc(OC)cc1    t
N#Cc1ccc(NN2C(C(O)c3ccc(Br)cc3)C=CC3C(=O)N(c4ccccc4)C(=O)C32)cc1 (centres undefined)    t

Can [N-]=[N+]=Nc1ccccc1C[C@@]1(C(N)=O)N=C(c2ccc(OCCCO)cc2)O[C@@H]1c1ccccc1N=[N+]=[N-] be said to have z-score at or above -0.3?
f

Check if z-score >= -0.3 (inclusive). Item: C=CCC(OC(C)=O)[C@@H]1[C@@H](N(Cc2ccc(-c3cccc(C(F)(F)F)c3)o2)C(=O)Cc2ccc(OC)cc2)c2cc(OCCCO)ccc2N1C(=O)c1ccc(-c2ccccc2)cc1 (some centres undefined)
t

Decide: z-score of [N-]=[N+]=Nc1ccccc1C[C@@]1(C(=O)N2CCOCC2)N=C(c2ccc(OCCCO)cc2)O[C@@H]1c1ccccc1 >= -0.3?
t

---

Entries and their composite z-score
Experiment: small molecules captured by biotinylated probe aFGF2 – biochemical, small-molecule microarray, fluorescence 635/667, stem cell growth factor project, primary screen (AID 1067);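 note: measures binding of biotinylated aFGF2 protein to printed compounds on slides; z-score merges feature fluorescence and signal-to-noise across triplicate slides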
Conditions: higher = more signal
# answer = number (no unit)

The following molecules have reported results that may help.
C=CC[C@@H](OC(=O)Nc1ccc(OC)cc1)c1ccc(O)c(F)c1    -0.141
CC(C)=C1C(=O)C(c2ccccc2)=C2CN3C(=O)N(CCc4ccccc4)C(=O)[C@]3(Cc3ccc(C(F)(F)F)cc3)[C@H]21    0.0977
Cc1ccc(NN2C(C(O)c3c(F)cccc3Cl)C=CC3C(=O)N(C4CCCCC4)C(=O)C32)cc1 (configuration not stated)    0.0749

For COc1ccc([Si](C)(C)[C@@H]2[C@@H](CC(=O)N(CCO)Cc3ccccc3)O[C@]3(C(=O)N(Cc4cccc(N5CCCCC5=O)c4)c4ccccc43)[C@H]2C)cc1 , what is its reported composite z-score?
-0.0019

Using the record for C=CCC(OC(C)=O)[C@@H]1[C@@H](N(Cc2cccc3ccccc23)C(=O)Cc2ccc(OC)cc2)c2cc(OCCCO)ccc2N1C(=O)c1ccc(-c2ccccc2)cc1 (some centres not stated) , report its composite z-score.
-0.112

May I ask what composite z-score has been recorded for COC(=O)[C@@]1(Cc2ccc(F)cc2)[C@H]2c3cc(C(=O)N4CCCC4)n(CCc4c[nH]c5ccccc45)c3C[C@H]2CN1C(=O)c1ccccc1 ?
0.0869

Query: composite z-score; subject: CN(C)C(=O)[C@@]1(Cc2ccccc2CN=[N+]=[N-])N=C(c2ccc(OCCCO)cc2)O[C@H]1c1ccccc1N=[N+]=[N-]
0.0362
